Target: Avi-KRAS G12V (1-169) GppNHp/RAF1 RBD-3xFLAG (52-151) (Homo sapiens, UniProt P01116, G12V)
Construct: 50 nM Avi-KRAS G12V (1-169) GppNHp
Sequence (P01116 1-169 isoform P01116-2 G12V): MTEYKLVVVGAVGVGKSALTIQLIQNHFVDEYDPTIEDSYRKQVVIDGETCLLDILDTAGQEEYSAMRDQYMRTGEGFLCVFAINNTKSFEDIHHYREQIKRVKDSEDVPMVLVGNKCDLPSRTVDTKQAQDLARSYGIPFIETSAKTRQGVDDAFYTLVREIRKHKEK
Test: RAS-effector PPI HTRF disruption assay, Raf1-GppNHp-KRAS G12V
pIC50: −log10 of the molar value.
Reported property: pIC50

Compound: Nc1nc2c(-c3ncc4c(O[C@@H]5CCNC5)nc(OC[C@@]56CCCN5C[C@H](F)C6)nc4c3F)ccc(F)c2s1
Study system: Avi-KRAS G12V (1-169) GppNHp/RAF1 RBD-3xFLAG (52-151) (Homo sapiens, UniProt P01116, G12V)
Result: < 5.00
--
Compound: Nc1nc2c(-c3c(C(F)(F)F)cc4c(O[C@H]5CNC[C@@H]5F)nc(OC[C@@]56CCCN5C[C@H](F)C6)nc4c3Cl)ccc(F)c2s1
Study system: Avi-KRAS G12V (1-169) GppNHp/RAF1 RBD-3xFLAG (52-151) (Homo sapiens, UniProt P01116, G12V)
Result: < 5.00
--
Compound: C[C@@H]1C[C@@H](Oc2nc(OC[C@@]34CCCN3C[C@H](F)C4)nc3cc(-c4ccc(F)c5sc(N)c(C#N)c45)c(C(F)(F)F)nc23)CN1 [Compound 95]
Study system: Avi-KRAS G12V (1-169) GppNHp/RAF1 RBD-3xFLAG (52-151) (Homo sapiens, UniProt P01116, G12V)
Result: < 5.00
--
Compound: N#Cc1c(N)sc2c(F)ccc(-c3c(Cl)cc4c(O[C@@H]5CNC[C@@H]5F)nc(OC[C@@]56CCCN5C[C@H](F)C6)nc4c3F)c12
Study system: Avi-KRAS G12V (1-169) GppNHp/RAF1 RBD-3xFLAG (52-151) (Homo sapiens, UniProt P01116, G12V)
Result: 5.00 to 6.00
--
Compound: C[C@H]1NCC[C@H]1Oc1nc(OCC23CCCN2C[C@H](F)C3)nc2c(F)c(-c3ccc(F)c4sc(N)nc34)c(C(F)(F)F)cc12 (some centres unmarked)
Study system: Avi-KRAS G12V (1-169) GppNHp/RAF1 RBD-3xFLAG (52-151) (Homo sapiens, UniProt P01116, G12V)
Result: 5.00 to 6.00
--
Compound: C[C@@H]1C[C@H](Oc2nc(OC[C@@]34CCCN3C[C@H](F)C4)nc3c(F)c(-c4ccc(F)c5sc(N)c(C#N)c45)c(Cl)cc23)CN1 (atropisomer, axis not shown) [Compound 60]
Study system: Avi-KRAS G12V (1-169) GppNHp/RAF1 RBD-3xFLAG (52-151) (Homo sapiens, UniProt P01116, G12V)
Result: 6.00 to 7.00
--
Compound: N#Cc1c(N)sc2c(F)ccc(-c3ccc4c(O[C@H]5CNC[C@H]5F)nc(OC[C@@]56CCCN5C[C@H](F)C6)nc4c3F)c12
Study system: Avi-KRAS G12V (1-169) GppNHp/RAF1 RBD-3xFLAG (52-151) (Homo sapiens, UniProt P01116, G12V)
Result: < 5.00
--
Compound: C[C@H]1C[C@@H](Oc2nc(OC[C@@]34CCCN3C[C@H](F)C4)nc3c(F)c(-c4ccc(F)c5sc(N)nc45)c(C(F)(F)F)cc23)CN1
Study system: Avi-KRAS G12V (1-169) GppNHp/RAF1 RBD-3xFLAG (52-151) (Homo sapiens, UniProt P01116, G12V)
Result: < 5.00
--
Compound: Nc1nc2c(-c3ccc4c(O[C@H]5CNC[C@H]5F)nc(OC[C@@]56CCCN5C[C@H](F)C6)nc4c3F)ccc(F)c2s1
Study system: Avi-KRAS G12V (1-169) GppNHp/RAF1 RBD-3xFLAG (52-151) (Homo sapiens, UniProt P01116, G12V)
Result: < 5.00
--
Compound: N#Cc1c(N)sc2c(F)ccc(-c3c(Cl)cc4c(O[C@H]5CCN[C@@H]5CO)nc(OC[C@@]56CCCN5C[C@H](F)C6)nc4c3F)c12 (atropisomer, axis not shown) [Compound 75]
Study system: Avi-KRAS G12V (1-169) GppNHp/RAF1 RBD-3xFLAG (52-151) (Homo sapiens, UniProt P01116, G12V)
Result: < 5.00
--
Compound: C[C@@H]1NCC[C@H]1Oc1nc(OC[C@@]23CCCN2C[C@H](F)C3)nc2c(F)c(-c3ccc(F)c4sc(N)nc34)c(C(F)(F)F)cc12 (atropisomer, axis not shown) [Compound 8]
Study system: Avi-KRAS G12V (1-169) GppNHp/RAF1 RBD-3xFLAG (52-151) (Homo sapiens, UniProt P01116, G12V)
Result: 5.00 to 6.00
--
Compound: Nc1nc2c(-c3ncc4c(O[C@@H]5CCNC5)nc(OC[C@@]56CCCN5C[C@H](F)C6)nc4c3F)c(F)cc(F)c2s1
Study system: Avi-KRAS G12V (1-169) GppNHp/RAF1 RBD-3xFLAG (52-151) (Homo sapiens, UniProt P01116, G12V)
Result: < 5.00
--
Compound: N#Cc1c(N)sc2c(F)ccc(-c3c(Cl)cc4c(O[C@@H]5CNC[C@H]5F)nc(OC[C@@]56CCCN5C[C@H](F)C6)nc4c3F)c12 (atropisomer, axis not shown)
Study system: Avi-KRAS G12V (1-169) GppNHp/RAF1 RBD-3xFLAG (52-151) (Homo sapiens, UniProt P01116, G12V)
Result: < 5.00
--
Compound: COC[C@H]1NCC[C@H]1Oc1nc(OC[C@@]23CCCN2C[C@H](F)C3)nc2c(F)c(-c3ccc(F)c4sc(N)c(C#N)c34)c(C(F)(F)F)cc12
Study system: Avi-KRAS G12V (1-169) GppNHp/RAF1 RBD-3xFLAG (52-151) (Homo sapiens, UniProt P01116, G12V)
Result: 5.00 to 6.00
--
Compound: N#Cc1c(N)sc2c(F)ccc(-c3c(Cl)cc4c(O[C@@H]5CN[C@@H](CO)C5)nc(OC[C@@]56CCCN5C[C@H](F)C6)nc4c3F)c12 (atropisomer, axis not shown) [Compound 68]
Study system: Avi-KRAS G12V (1-169) GppNHp/RAF1 RBD-3xFLAG (52-151) (Homo sapiens, UniProt P01116, G12V)
Result: < 5.00
--
Compound: COC[C@H]1C[C@@H](Oc2nc(OC[C@@]34CCCN3C[C@H](F)C4)nc3c(F)c(-c4ccc(F)c5sc(N)c(C#N)c45)c(C(F)(F)F)cc23)CN1 (atropisomer, axis not shown) [Compound 81]
Study system: Avi-KRAS G12V (1-169) GppNHp/RAF1 RBD-3xFLAG (52-151) (Homo sapiens, UniProt P01116, G12V)
Result: < 5.00
--
Compound: N#Cc1c(-c2ccc(F)c3sc(N)c(C#N)c23)c(Cl)cc2c(O[C@H]3CNC[C@H]3F)nc(OC[C@@]34CCCN3C[C@H](F)C4)nc12
Study system: Avi-KRAS G12V (1-169) GppNHp/RAF1 RBD-3xFLAG (52-151) (Homo sapiens, UniProt P01116, G12V)
Result: < 5.00
--
Compound: COC[C@H]1C[C@@H](Oc2nc(OC[C@@]34CCCN3C[C@H](F)C4)nc3c(F)c(-c4ccc(F)c5sc(N)c(C#N)c45)c(C(F)(F)F)cc23)CN1 (atropisomer, axis not shown) [Compound 80]
Study system: Avi-KRAS G12V (1-169) GppNHp/RAF1 RBD-3xFLAG (52-151) (Homo sapiens, UniProt P01116, G12V)
Result: 6.00 to 7.00
--
Compound: C[C@@H]1C[C@@H](Oc2nc(OC[C@@]34CCCN3C[C@H](F)C4)nc3cc(-c4ccc(F)c5sc(N)c(C#N)c45)c(C(F)(F)F)nc23)CN1 [Compound 94]
Study system: Avi-KRAS G12V (1-169) GppNHp/RAF1 RBD-3xFLAG (52-151) (Homo sapiens, UniProt P01116, G12V)
Result: 5.00 to 6.00
--
Compound: C[C@H]1NCC[C@H]1Oc1nc(OC[C@@]23CCCN2C[C@H](F)C3)nc2c(F)c(-c3ccc(F)c4sc(N)c(C#N)c34)c(C(F)(F)F)cc12 (single isomer, unassigned) [Compound 74]
Study system: Avi-KRAS G12V (1-169) GppNHp/RAF1 RBD-3xFLAG (52-151) (Homo sapiens, UniProt P01116, G12V)
Result: < 5.00
